Read-out: Potassium channel subfamily K member 1 (KCNK1), KCNK1 (gene 3775)
Procedure text: LTEA_HepaRG_KCNK1: Life Technologies and Expression Analysis (LTEA) Assay for Potassium channel subfamily K member 1 (KCNK1) using HepaRG (AID 2283511)
Setup conditions: mRNA level, 48 h; actives raise or lower the signal
The source made the active and inactive calls. How the source made its calls: active means hit-call score of the fitted dose curve at least 0.9, where 1 is the maximum; inactive means score below 0.9.
Metric: AC50

INSERT INTO measurements (molecule, reading) VALUES
  ('O=C(NC(=O)c1c(F)cccc1F)Nc1cc(Cl)c(OC(F)(F)C(F)F)c(Cl)c1', 'inactive'),
  ('CCC(C)c1cc([N+](=O)[O-])cc([N+](=O)[O-])c1O (stereo not given)', '27.5 µM (active)'),
  ('Cc1cc2c3c(c1)C(c1ccccc1)=N[C@@H](NC(=O)c1ccncc1)C(=O)N3CC2', 'inactive'),
  ('CC(C)C(=O)OCC(C)(C)C(OC(=O)C(C)C)C(C)C (stereo not given)', 'inactive'),
  ('O=C(N[C@H]1CN2CCC1CC2)c1cc2ccoc2cn1', 'inactive');

* * *

Read-out: solute carrier (SLC22A1), SLC22A1 (gene 6580)
Procedure text: LTEA_HepaRG_SLC22A1: Life Technologies and Expression Analysis (LTEA) Assay for solute carrier (SLC22A1) using HepaRG (AID 2283524);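 on AC50: differentiated human HepaRG liver cells in serum-free induction medium; TaqMan qRT-PCR normalized to ACTB GAPDH and POLR2A housekeeping genes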
Setup conditions: mRNA level, 48 h; actives raise or lower the signal
The source made the active and inactive calls. Rule for the calls: active = hit-call score of the fitted dose curve at least 0.9, where 1 is the maximum; inactive = score below 0.9.
Metric: AC50

INSERT INTO measurements (compound, metric, reading) VALUES
  ('CCSC(=O)N(CC)C1CCCCC1', 'AC50', 'inactive'),
  ('CCOCCOC(C)=O', 'AC50', 'inactive'),
  ('ClC(Cl)=C(c1ccc(Cl)cc1)c1ccc(Cl)cc1', 'AC50', 'inactive'),
  ('CCOP(=S)(OCC)SCSC(C)(C)C', 'AC50', 'inactive'),
  ('CCC(C)c1cc([N+](=O)[O-])cc([N+](=O)[O-])c1O (configuration not stated)', 'AC50', '1.74 µM (active)'),
  ('Cc1cc(O)ccc1Cl', 'AC50', 'inactive'),
  ('CCC(C)(c1ccc(O)cc1)c1ccc(O)cc1', 'AC50', 'inactive'),
  ('CC(C)(O)C(=O)Nc1ccc([N+](=O)[O-])c(C(F)(F)F)c1', 'AC50', 'inactive'),
  ('O=C(O)C(F)(F)C(F)(F)C(F)(F)C(F)(F)C(F)(F)C(F)(F)C(F)(F)C(F)(F)F', 'AC50', '86.1 µM (active)'),
  ('Cc1cc2c3c(c1)C(c1ccccc1)=N[C@@H](NC(=O)c1ccncc1)C(=O)N3CC2', 'AC50', '50 µM (active)'),
  ('Oc1c(Cl)c(Cl)c(Cl)c(Cl)c1Cl', 'AC50', '3.31 µM (active)'),
  ('C1CC2OC2CC1C1CO1 (configuration not stated)', 'AC50', 'inactive');

* * *

Read-out: HGF (gene 3082)
Procedure text: LTEA_HepaRG_HGF: Life Technologies and Expression Analysis (LTEA) Assay for Hepatocyte Growth Facto (HGF) using HepaRG (AID 2283505)
Setup conditions: mRNA level, 48 h; actives raise or lower the signal
Activity calls are given as the source filed them. Rule for the calls: active = hit-call score of the fitted dose curve at least 0.9, where 1 is the maximum; inactive = score below 0.9.
Metric: AC50

INSERT INTO results (compound, reading) VALUES
  ('O=NN(c1ccccc1)c1ccccc1', 'inactive'),
  ('Cc1cccc(C)c1N', 'inactive'),
  ('CC(C)C(=O)OCC(C)(C)C(OC(=O)C(C)C)C(C)C (stereo unspecified)', 'inactive'),
  ('CCC(C)c1cc([N+](=O)[O-])cc([N+](=O)[O-])c1O (stereo unspecified)', '2.87 µM (active)'),
  ('Cc1ccccc1O', 'inactive'),
  ('C[C@]12CCC(=O)C=C1CC[C@@H]1[C@@H]2CC[C@]2(C)C(=O)CC[C@@H]12', 'inactive'),
  ('Oc1c(Cl)c(Cl)c(Cl)c(Cl)c1Cl', 'inactive'),
  ('C=CC(=O)NCNC(=O)C=C', 'inactive'),
  ('CC#Cc1cc(C)nc(Nc2ccccc2)n1', '50 µM (active)'),
  ('N#Cc1ccc(N(CC(N)=O)CC(F)(F)F)cc1C(F)(F)F', 'inactive'),
  ('CN(C)CCO', 'inactive'),
  ('C1CC2OC2CC1C1CO1 (stereo unspecified)', 'inactive'),
  ('CCCCCCOC(=O)c1ccccc1C(=O)OCCCCCC', 'inactive'),
  ('CCCCCCCCCC[N+](C)(C)CCCCCCCCCC', '50 µM (active)'),
  ('O=C(N[C@H]1CN2CCC1CC2)c1cc2ccoc2cn1', 'inactive'),
  ('CC(c1ccc(O)cc1)(c1ccc(O)cc1)c1ccc(O)cc1', '25.1 µM (active)'),
  ('CCCCCCCCOC(=O)c1ccccc1C(=O)OCCCCCCCC', 'inactive'),
  ('O=C(O)C(F)(F)C(F)(F)C(F)(F)C(F)(F)C(F)(F)C(F)(F)C(F)(F)C(F)(F)C(F)(F)F', '89.8 µM (active)'),
  ('CN(C)c1nc(=O)n(C2CCCCC2)c(=O)n1C', 'inactive'),
  ('Clc1ccc(C(Cl)(Cl)Cl)cc1', 'inactive'),
  ('Cc1cccc([N+](=O)[O-])c1', 'inactive'),
  ('Cc1cc(O)ccc1Cl', 'inactive'),
  ('CCSC(=O)N(CC)C1CCCCC1', 'inactive'),
  ('ClC1=C(Cl)[C@]2(Cl)[C@@H]3[C@@H]4C[C@@H]([C@H]5O[C@@H]45)[C@@H]3[C@@]1(Cl)C2(Cl)Cl', 'inactive'),
  ('C=CC(N)=O', 'inactive'),
  ('COS(=O)(=O)OC', 'inactive');

* * *

Read-out: growth arrest and DNA damage 45 (GADD45B), GADD45B (gene 4616)
Procedure text: LTEA_HepaRG_GADD45B: Life Technologies and Expression Analysis (LTEA) Assay for growth arrest and DNA damage 45 (GADD45B) using HepaRG (AID 2283461)
Setup conditions: mRNA level, 48 h; actives raise or lower the signal
Calls of active or inactive are those of the source. The calls were made as follows: active = hit-call score of the fitted dose curve at least 0.9, where 1 is the maximum; inactive = score below 0.9.
Outcomes: YES (active), NO (inactive)

INSERT INTO measurements (compound, label_value) VALUES
  ('CC(C)C(=O)OCC(C)(C)C(OC(=O)C(C)C)C(C)C (stereo not given)', 'NO'),
  ('CC(C)(c1ccccc1)c1ccc(O)cc1', 'NO'),
  ('CC(c1ccc(O)cc1)(c1ccc(O)cc1)c1ccc(O)cc1', 'YES'),
  ('CC1=C2C[C@H]3[C@@H](CC=C4C[C@@H](O)CC[C@@]43C)[C@@H]2CC[C@]12O[C@@H]1C[C@H](C)CN[C@H]1[C@H]2C', 'NO'),
  ('O=S(=O)(O)C(F)(F)C(F)(F)C(F)(F)C(F)(F)F', 'NO');

* * *

Procedure text: BSK_3C_TissueFactor: BioMAP Diversity Plus: 3C Assay for Tissue Factor Biomarker Activity (AID 2282997)
Setup conditions: BioMAP 3C HUVEC, tissue factor biomarker readout; actives raise or lower the signal
The source made the active and inactive calls. How the source made its calls: active means hit-call score of the fitted dose curve at least 0.9, where 1 is the maximum; inactive means score below 0.9.
Metric: AC50

INSERT INTO results (molecule, reading) VALUES
  ('Nc1ccc(-c2ccc(N)cc2)cc1', '3.97 µM (active)'),
  ('O=S(=O)(O)C(F)(F)C(F)(F)C(F)(F)C(F)(F)C(F)(F)C(F)(F)F', 'inactive'),
  ('Cc1cccc([N+](=O)[O-])c1', 'inactive'),
  ('c1cc2ccc3cccc4ccc(c1)c2c34', '5.47 µM (active)'),
  ('CO/C=C(/C(=O)OC)c1ccccc1COc1cccc(C(F)(F)F)n1', '10.4 µM (active)'),
  ('ClC1=C(Cl)[C@]2(Cl)[C@@H]3[C@@H](Cl)[C@H]4O[C@H]4[C@@H]3C1(Cl)C2(Cl)Cl', 'inactive'),
  ('CCCCCCCCCC[N+](C)(C)CCCCCCCCCC', '4.21 µM (active)'),
  ('CC(C)(c1ccccc1)c1ccc(O)cc1', '30.5 µM (active)'),
  ('Cc1ccc(O)c(C)c1', 'inactive'),
  ('CCC(C)c1cc([N+](=O)[O-])cc([N+](=O)[O-])c1O (stereo unspecified)', 'inactive'),
  ('C=CC(N)=O', 'inactive');

* * *

Procedure text: CEETOX_H295R_PROG: CeeTox H295R High-throughput Steroidogenesis Assay for Progesterone (PROG) (AID 2283442)
Setup conditions: actives raise or lower the signal
Activity calls are given as the source filed them. Rule for the calls: active = hit-call score of the fitted dose curve at least 0.9, where 1 is the maximum; inactive = score below 0.9.
Outcomes: true = active, false = inactive

INSERT INTO measurements (smiles_notation, label_value) VALUES
  ('CCNc1nc(NC(C)C)nc(SC)n1', 'false'),
  ('C[C@]12CCC(=O)C=C1CC[C@@H]1[C@@H]2CC[C@@]2(C)[C@H]1CC[C@]2(C)O', 'false'),
  ('Cc1ccc(O)c(C)c1', 'false'),
  ('ClC1=C(Cl)[C@]2(Cl)[C@@H]3[C@H]4C[C@H]([C@@H]5O[C@H]45)[C@@H]3[C@@]1(Cl)C2(Cl)Cl', 'true'),
  ('NS(=O)(=O)C(F)(F)C(F)(F)C(F)(F)C(F)(F)C(F)(F)C(F)(F)C(F)(F)C(F)(F)F', 'false');
